# test.target: 5α-reductase (Homo sapiens)
# Construct: host or cells: Hs68 human genital skin fibroblasts
# Sequence (P18405 whole entry): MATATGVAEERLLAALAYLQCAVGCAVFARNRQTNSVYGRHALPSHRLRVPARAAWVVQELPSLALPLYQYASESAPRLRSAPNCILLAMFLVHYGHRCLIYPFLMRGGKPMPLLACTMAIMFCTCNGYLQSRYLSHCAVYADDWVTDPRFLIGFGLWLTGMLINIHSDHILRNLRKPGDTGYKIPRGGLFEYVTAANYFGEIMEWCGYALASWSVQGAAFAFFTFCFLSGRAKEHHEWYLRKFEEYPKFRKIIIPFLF
# experiment.notes: 5α-Reductase activity (conversion of testosterone to DHT) in Hs68 human genital skin fibroblasts, TLC of radiolabelled steroids
# Assay type: cell-based
# condition.context: Concentration 10.0 mM; Hs68 cells, four hours incubation; 0 equals no activity, 100 equals total inhibition
measurement.label: inhibition at 10000 µM (%)
I only need the number, in %, no unit after it.

Annotate the compound CN1C(=O)CCC2=C1CCc1cc(Cl)ccc12 with its measured inhibition at 10000 µM. 91

Quickly give me recorded inhibition at 10000 µM for CN1C(=O)CCC2=C1CCc1cc(F)ccc12 81

// Input: Cc1ccc2c(c1)CCC1=C2CCC(=O)N1 . Output its inhibition at 10000 µM only. 100

Tell me inhibition at 10000 µM reported for Cc1ccc2c(c1)CCC1=C2CCC(=O)N1C 100

Please give measured inhibition at 10000 µM of the following entry: O=C1CCC2=C(CCc3cc(F)ccc32)N1 76

The reported numbers originate from patent EP0591582B1.
